Provenance of the data: patent US20030068675

Biological target: T1, ZFP SBS#1339 (synthetic)
T1 chain: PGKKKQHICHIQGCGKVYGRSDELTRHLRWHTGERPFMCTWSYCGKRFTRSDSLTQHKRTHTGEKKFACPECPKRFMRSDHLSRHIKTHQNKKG
Assay: EMSA
Details: tags: MBP fusion
attributeMeasured: pKd
pKd here is simply -log10 of the concentration when that concentration is written in mol/L.

Query string: Need pKd of GGGATGGCG (dsDNA) DNA 1: GGGATGGCG DNA 2: CGCCATCCC , thanks.
Result string: 9.24
